# Tested on: Escherichia coli SOL 90
# TEST: MIC, in vitro dilution method, Escherichia coli SOL 90 (Table III)
# Format: cell-based
# CONDITION_DESCRIPTION: SOL90; Escherichia coli SOL 90; dilution method; read-out: MIC
Each record here notes measured MIC.
Please state the figure in µg/mL; there is no need to write the unit.

Solved cases (4 shown):
{"COMPOUND": "CC(C)(ON=C(C(=O)NC1C(=O)N2C(C(=O)O)=C(CSC(=O)c3cccc(CN)c3)C[S+]([O-])C12)c1csc(N)n1)C(=O)O (stereo not drawn)", "ENDPOINT_VALUE": 0.5}
{"COMPOUND": "COc1cc(C(=O)OCC2=C(C(=O)O)N3C(=O)C(NC(=O)/C(=N\\OC(C)(C)C(=O)O)c4csc(N)n4)C3[S+]([O-])C2)ccc1CN (stereo not drawn)", "ENDPOINT_VALUE": 0.25}
{"COMPOUND": "CC(C)(ON=C(C(=O)NC1C(=O)N2C(C(=O)O)=C(COC(=O)c3ccc(NC(=O)C4CCNCC4)cc3)C[S+]([O-])C12)c1csc(N)n1)C(=O)O (stereo not drawn)", "ENDPOINT_VALUE": 0.125}
{"COMPOUND": "CC(C)(ON=C(C(=O)NC1C(=O)N2C(C(=O)O)=C(COC(=O)c3ccc(CN)c(Br)c3)C[S+]([O-])C12)c1csc(N)n1)C(=O)O (stereo not drawn)", "ENDPOINT_VALUE": 0.25}

Task item: Any idea what MIC was measured for CCNCc1cccc(C(=O)OCC2=C(C(=O)O)N3C(=O)C(NC(=O)/C(=N\OC(C)(C)C(=O)O)c4csc(N)n4)C3[S+]([O-])C2)c1 (stereo not drawn) ?
Reply: 0.5

Task item: Another compound to look at: CC(C)(CN)C(=O)OCC1=C(C(=O)O)N2C(=O)C(NC(=O)/C(=N\OC3(C(=O)O)CCC3)c3csc(N)n3)C2[S+]([O-])C1 (stereo not drawn)
Reply: 0.5

Task item: Another compound to look at: CNCc1ccc(C(=O)SCC2=C(C(=O)O)N3C(=O)C(NC(=O)C(=NOC(C)(C)C(=O)O)c4csc(N)n4)C3[S+]([O-])C2)cc1 (stereo not drawn)
Reply: 0.5

Task item: Another compound to look at: CC(C)(ON=C(C(=O)NC1C(=O)N2C(C(=O)O)=C(COC(=O)c3ccc(NC(=O)CCN)cc3)C[S+]([O-])C12)c1csc(N)n1)C(=O)O (stereo not drawn)
Reply: 0.25

Task item: Another compound to look at: Nc1nc(/C(=N/OC2(C(=O)O)CCC2)C(=O)NC2C(=O)N3C(C(=O)O)=C(COC(=O)CC4CCNCC4)C[S+]([O-])C23)cs1 (stereo not drawn)
Reply: 0.25

Task item: Another compound to look at: CC(C)(ON=C(C(=O)NC1C(=O)N2C(C(=O)O)=C(CSC(=O)c3ccc(NC(=O)CN)cc3)C[S+]([O-])C12)c1csc(N)n1)C(=O)O (stereo not drawn)
Reply: 1

Task item: Another compound to look at: Cc1c(CN)cccc1C(=O)SCC1=C(C(=O)O)N2C(=O)C(NC(=O)C(=NOC3(C(=O)O)CCC3)c3csc(N)n3)C2[S+]([O-])C1 (stereo not drawn)
Reply: 0.5

Task item: Another compound to look at: CNCC(=O)Nc1ccc(C(=O)OCC2=C(C(=O)O)N3C(=O)C(NC(=O)C(=NOC(C)(C)C(=O)O)c4csc(N)n4)C3[S+]([O-])C2)cc1 (stereo not drawn)
Reply: 0.25

Task item: Another compound to look at: Cc1c(NC(=O)CN)cccc1C(=O)OCC1=C(C(=O)O)N2C(=O)C(NC(=O)C(=NOC(C)(C)C(=O)O)c3csc(N)n3)C2[S+]([O-])C1 (stereo not drawn)
Reply: 0.25

Task item: Another compound to look at: C[C@H](N)C(=O)OCC1=C(C(=O)O)N2C(=O)C(NC(=O)/C(=N\OC(C)(C)C(=O)O)c3csc(N)n3)C2[S+]([O-])C1 (stereo partly drawn)
Reply: 2

Task item: Another compound to look at: CC(C)(ON=C(C(=O)NC1C(=O)N2C(C(=O)O)=C(COC(=O)c3ccc(NC(=O)CCCCN)cc3)C[S+]([O-])C12)c1csc(N)n1)C(=O)O (stereo not drawn)
Reply: 0.125
